target.or.test.system: Caspase-1 (Homo sapiens)
Sequence (P29466 whole entry): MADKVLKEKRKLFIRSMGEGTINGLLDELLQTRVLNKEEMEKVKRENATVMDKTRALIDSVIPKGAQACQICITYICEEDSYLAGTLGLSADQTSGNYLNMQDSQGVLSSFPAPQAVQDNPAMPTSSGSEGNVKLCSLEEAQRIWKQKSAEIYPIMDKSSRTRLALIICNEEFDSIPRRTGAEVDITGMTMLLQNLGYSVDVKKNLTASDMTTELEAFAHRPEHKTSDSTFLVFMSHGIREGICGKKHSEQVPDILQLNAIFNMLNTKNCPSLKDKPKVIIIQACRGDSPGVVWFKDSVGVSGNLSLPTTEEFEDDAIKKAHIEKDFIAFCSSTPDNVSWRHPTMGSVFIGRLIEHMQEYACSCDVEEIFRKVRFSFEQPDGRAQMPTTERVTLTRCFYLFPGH
pIC50: −log10 of the molar value.
measured.quantity: pIC50

[
  {
    "compound": "COc1cccc(C(=O)N2CCCN(CC(=O)N[C@H]3CC(=O)OC3O)C(=O)[C@@H](NC(=O)c3ccc4ccccc4c3)C2)c1 (stereo partly drawn)",
    "measured.number": 7.82
  }
]

1. O=C(CN1CCCN(C(=O)c2cccc(F)c2)C[C@H](NC(=O)c2ccc3ccccc3c2)C1=O)N[C@H]1CC(=O)OC1O (stereo partly drawn)
2. COc1ccccc1C(=O)N1CCCN(CC(=O)N[C@H]2CC(=O)OC2O)C(=O)[C@@H](NC(=O)c2ccc3ccccc3c2)C1 (stereo partly drawn)
Query string: Exercise: compare 1 and 2 ; which one has the greater pIC50? The response must carry the label of the picked entry.
Result string: 1
